Where these numbers come from: patent US10975056B2

System: erythroid progenitor cells (EPCs)
Experimental protocol: Fetal hemoglobin (HbF) ELISA in day 7 erythroid progenitor cells;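 also: for fetal hemoglobin induction normalized to vehicle-treated cells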
Format: cell-based, human
Condition label: Homo sapiens, Erythroid progenitor cell, HbF ELISA, day 7 EPCs, 5 days; read-out: EPC ELISA (pEC50 category) (converted)
Structures can show the parent of a compound that is named as a salt.

Compound | EC50
CCc1c(C#N)c(N)nc(SC(C(N)=O)c2ccccc2)c1C#N (stereo not shown) | > 31.6 µM
CCc1c(C#N)c(SC(C(N)=O)c2ccccc2)nc(N2CCC(N3CCC(F)(F)C3)CC2)c1C#N (stereo not shown) | < 0.316 µM
N#Cc1c(SC(C(N)=O)c2ccccc2)nc(N2CCC(N3CCCC3)CC2)c(C#N)c1C1CC1 (stereo not shown) [Example 42, trifluoroacetate] | < 0.316 µM
CN(CC(N)=O)c1nc(SC(C(N)=O)c2ccccc2)c(C#N)c(C2CC2)c1C#N (stereo not shown) | 1 to 31.6 µM

====

Experimental target: UniProt P26358
Sequence (P26358 whole entry, looked up): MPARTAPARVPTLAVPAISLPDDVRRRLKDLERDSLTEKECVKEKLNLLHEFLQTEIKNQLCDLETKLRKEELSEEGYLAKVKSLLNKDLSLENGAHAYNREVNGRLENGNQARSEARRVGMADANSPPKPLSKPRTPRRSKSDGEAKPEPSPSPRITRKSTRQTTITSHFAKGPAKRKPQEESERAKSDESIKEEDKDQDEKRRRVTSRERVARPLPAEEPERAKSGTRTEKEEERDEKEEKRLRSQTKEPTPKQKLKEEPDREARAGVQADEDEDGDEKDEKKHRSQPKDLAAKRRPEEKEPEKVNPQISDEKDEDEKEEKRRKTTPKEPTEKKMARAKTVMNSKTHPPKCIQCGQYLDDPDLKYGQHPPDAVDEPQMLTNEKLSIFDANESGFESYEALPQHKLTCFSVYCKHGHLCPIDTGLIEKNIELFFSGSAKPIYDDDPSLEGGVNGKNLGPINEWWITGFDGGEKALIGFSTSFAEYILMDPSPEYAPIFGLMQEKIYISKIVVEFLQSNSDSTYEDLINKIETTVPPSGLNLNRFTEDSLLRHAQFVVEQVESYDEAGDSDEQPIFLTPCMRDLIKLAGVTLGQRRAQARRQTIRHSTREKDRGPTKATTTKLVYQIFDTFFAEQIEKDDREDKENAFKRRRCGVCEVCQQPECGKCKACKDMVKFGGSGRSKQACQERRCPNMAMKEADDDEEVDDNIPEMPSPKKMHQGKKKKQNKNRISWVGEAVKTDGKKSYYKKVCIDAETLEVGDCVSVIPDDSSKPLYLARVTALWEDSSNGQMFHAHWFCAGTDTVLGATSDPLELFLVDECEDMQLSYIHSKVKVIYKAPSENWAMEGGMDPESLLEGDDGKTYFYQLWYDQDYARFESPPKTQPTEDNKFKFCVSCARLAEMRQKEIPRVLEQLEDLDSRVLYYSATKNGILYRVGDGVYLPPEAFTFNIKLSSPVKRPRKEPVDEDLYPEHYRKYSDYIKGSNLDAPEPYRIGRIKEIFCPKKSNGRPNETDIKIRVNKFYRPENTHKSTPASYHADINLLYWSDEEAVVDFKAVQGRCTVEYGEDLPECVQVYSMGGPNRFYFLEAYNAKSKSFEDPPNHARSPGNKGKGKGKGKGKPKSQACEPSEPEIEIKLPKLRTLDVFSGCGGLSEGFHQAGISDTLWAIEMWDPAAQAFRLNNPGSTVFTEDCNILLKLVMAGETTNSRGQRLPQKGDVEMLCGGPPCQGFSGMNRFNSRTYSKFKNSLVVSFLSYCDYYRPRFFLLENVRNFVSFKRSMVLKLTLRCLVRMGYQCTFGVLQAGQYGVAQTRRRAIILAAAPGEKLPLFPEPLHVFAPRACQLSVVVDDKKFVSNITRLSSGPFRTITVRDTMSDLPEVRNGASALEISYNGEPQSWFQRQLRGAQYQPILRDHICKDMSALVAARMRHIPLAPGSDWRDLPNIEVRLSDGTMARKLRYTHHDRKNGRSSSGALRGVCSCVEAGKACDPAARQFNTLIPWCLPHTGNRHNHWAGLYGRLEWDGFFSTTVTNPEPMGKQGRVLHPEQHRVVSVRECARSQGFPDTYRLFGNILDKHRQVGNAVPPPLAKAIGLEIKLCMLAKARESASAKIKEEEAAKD
Experimental protocol: DNMT1 biochemical activity, breaklight assay and/or SPA assay
Condition label: binned activity in either the breaklight or the SPA assay
Experimental readout: DNMT1 BioChemical (pIC50 category)

Compound | Experimental target | Measured result
CCc1c(C#N)c(SC(C(N)=O)c2ccccc2)nc(N2CCCN(CC(C)O)CC2)c1C#N (stereo not shown) | UniProt P26358 | D (Category D: ≥6.5)
CCc1c(C#N)c(SC(C(N)=O)c2ccccc2)nc(N(C)CC(=O)N2CC[C@@H](O)C2)c1C#N (stereo partly shown) | UniProt P26358 | D (Category D: ≥6.5)
CCc1c(C#N)c(S[C@@H](C(N)=O)c2ccccc2)nc(N2CC[C@H](N)[C@H](F)C2)c1C#N | UniProt P26358 | D (Category D: ≥6.5)
CCc1c(C#N)c(SC(C(N)=O)c2ccccc2)nc(N2CCC(N3[C@@H](C)CC[C@@H]3C)CC2)c1C#N (stereo partly shown) | UniProt P26358 | D (Category D: ≥6.5)
CCc1c(C#N)c(SC(C(N)=O)c2ccccc2)nc(N2CCC(NC)C2)c1C#N (stereo not shown) | UniProt P26358 | D (Category D: ≥6.5)
CCc1c(C#N)c(SC(C(N)=O)c2ccccc2)nc(N(C)Cc2ncc[nH]2)c1C#N (stereo not shown) | UniProt P26358 | D (Category D: ≥6.5)
CCc1c(C#N)c(S[C@H](C(N)=O)c2ccccc2)nc(N2CCC(C)(N)CC2)c1C#N (single isomer, unassigned) | UniProt P26358 | D (Category D: ≥6.5)

====

Tested on: erythroid progenitor cells (EPCs)
Experimental protocol: Fetal hemoglobin (HbF) ELISA in day 7 erythroid progenitor cells;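 also: for fetal hemoglobin induction normalized to vehicle-treated cells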
Format: cell-based, human
Condition label: Homo sapiens, Erythroid progenitor cell, HbF ELISA, day 7 EPCs, 5 days; read-out: EPC ELISA (pEC50 category) (converted)
Structures can show the parent of a compound that is named as a salt.
// reported EC50 per item

Compound | EC50
CCc1c(C#N)c(S[C@@H](C(N)=O)c2ccccc2)nc(N2CCC(N3CCCC3)CC2)c1C#N | < 316 nM
CCc1c(C#N)c(SCc2ccc(CN)cc2)nc(N(C)C)c1C#N [Example 272, Hydrochloride] | > 31600 nM
N#Cc1c(SC(C(N)=O)c2ccccc2)nc(N2CCC(NCCO)CC2)c(C#N)c1C1CC1 (centres unmarked) | 1000 to 31600 nM
CCc1c(C#N)c(SCc2ccc(N3CCCS3(=O)=O)cc2)nc(N2CCC(N)CC2)c1C#N | > 31600 nM
CCc1c(C#N)c(SC(C(N)=O)c2ccccc2)nc(N2CCO[C@H](CNC(=O)C(C)(C)N)C2)c1C#N (some centres unmarked) | < 316 nM
CCc1c(C#N)c(SCc2ccc(CNC(=O)CN)cc2)nc(N(C)CCN(CC)CC)c1C#N | < 316 nM
CC1CN(c2nc(SC(C(N)=O)c3ccccc3)c(C#N)c(C3CC3)c2C#N)CCN1 (centres unmarked) | < 316 nM
CCc1c(C#N)c(SC(C(N)=O)c2ccccc2)nc(N2CCC(NCc3ccccc3)CC2)c1C#N (centres unmarked) | < 316 nM

====

Test system: erythroid progenitor cells (EPCs)
Experimental protocol: Fetal hemoglobin (HbF) ELISA in day 7 erythroid progenitor cells;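 also: for fetal hemoglobin induction normalized to vehicle-treated cells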
Type: cell-based, human
Condition label: Homo sapiens, Erythroid progenitor cell, HbF ELISA, day 7 EPCs, 5 days; read-out: EPC ELISA (pEC50 category) (converted)
Structures can show the parent of a compound that is named as a salt.
Reported EC50 values for a set of molecules

Molecule | EC50
CCc1c(C#N)c(SC(C(N)=O)c2cccc(F)n2)nc(N2CCCN(C)CC2)c1C#N (centres unmarked) | > 31600 nM
CCc1c(C#N)c(SCc2ccc(N(C)S(C)(=O)=O)cc2)nc(N2CCC(NC(C)C)CC2)c1C#N | < 316 nM
CCc1c(C)c(N2CCNCC2)nc(SC(C(N)=O)c2ccccc2)c1C#N (centres unmarked) | > 31600 nM
CCc1c(C#N)c(SC(C(N)=O)c2ccccc2)nc(N2CCC(N)CC2)c1C#N (centres unmarked) | < 316 nM
CCc1c(C#N)c(SC(C(N)=O)c2ccccc2)nc(N2CCC[C@@H](CN)C2)c1C#N (some centres unmarked) | < 316 nM
CCc1c(C#N)c(SC(C(N)=O)c2ccccc2)nc(N(C)CC(C)(O)C(N)=O)c1C#N (centres unmarked) | 1000 to 31600 nM
CCc1c(C#N)c(SC(C(N)=O)c2ccccc2)nc(N2CCC(OCCN)CC2)c1C#N (centres unmarked) [Example 149, Trifluoroacetic Acid Salt] | < 316 nM
CCc1c(C#N)c(SC(C(N)=O)c2ccccc2)nc(N2CCCN3CCCC3C2)c1C#N (centres unmarked) | < 316 nM

====

Parameter EC50: see the listing below.
System: erythroid progenitor cells (EPCs)
Experimental protocol: Fetal hemoglobin (HbF) ELISA in day 7 erythroid progenitor cells;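 also: for fetal hemoglobin induction normalized to vehicle-treated cells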
Assay type: cell-based, human
Condition label: Homo sapiens, Erythroid progenitor cell, HbF ELISA, day 7 EPCs, 5 days; read-out: EPC ELISA (pEC50 category) (converted)
Where a name gives a salt, the structure may show the parent alone.
Experimental readout: EC50

Compound | Measured result
CCc1c(C#N)c(SCc2ccc(NC(C)=O)c(F)c2)nc(N2CCCN(C)CC2)c1C#N [Example 362] | > 31.6 µM
CCc1c(C#N)c(SC(C(N)=O)c2ccccc2)nc(N(C)CCN2CCC[C@H]2C)c1C#N (stereo partly shown) [Example 459] | < 0.316 µM
CCc1c(C#N)c(SC(C(N)=O)c2ccccc2)nc(N2CCN(Cc3cnco3)CC2)c1C#N (stereo not shown) [Example 184] | 0.316 to 1 µM
CCc1c(C#N)c(SC(C(N)=O)c2ccc(F)nc2)nc(N2CCCN(C)CC2)c1C#N (stereo not shown) [Example 228] | 0.316 to 1 µM
CCc1c(C#N)c(SC(C(N)=O)c2ccccc2)nc(N2CCC(N3CCC[C@@H]3CO)CC2)c1C#N (single isomer, unassigned) [Example 464] | < 0.316 µM
CCc1c(C#N)c(SC(C(N)=O)c2ccccc2)nc(N2CCC(CO)(NCCO)CC2)c1C#N (stereo not shown) [Example 661] | 1 to 31.6 µM
CCc1c(C#N)c(SC(C(N)=O)c2ccccc2)nc(N2CCC3(CCN(C)C3)CC2)c1C#N (stereo not shown) [Example 215] | < 0.316 µM
CCc1c(C)c(N2CCC(N)CC2)nc(SC(C(N)=O)c2ccccc2)c1C#N (stereo not shown) [Example 376] | 0.316 to 1 µM
CCc1c(C#N)c(SC(C(N)=O)c2ccc(F)cc2)nc(N2CCC(N3CCCC3)CC2)c1C#N (stereo not shown) [Example 505] | < 0.316 µM
CCc1c(C#N)c(SC(C(N)=O)c2ccccc2)nc(N2Cc3cn[nH]c3C2)c1C#N (stereo not shown) [Example 236] | > 31.6 µM
CCc1c(C#N)c(S[C@@H](C(N)=O)c2ccccc2)nc(N2CCO[C@H](CN)C2)c1C#N [Example 561, Hydrochloride] | < 0.316 µM
CCc1c(C#N)c(SC(C(N)=O)c2ccccc2)nc(N(C)CCONC(=N)N)c1C#N (stereo not shown) [Example 644] | 1 to 31.6 µM
CCc1c(C#N)c(SCc2ccc(CNC(=O)CN)cc2)nc(N2CCCN(C)CC2)c1C#N [Example 80] | 0.316 to 1 µM
CCc1c(C#N)c(SC(C(N)=O)c2ccccc2)nc(N2CCC3(CC2)COC(=O)N3)c1C#N (stereo not shown) [Example 241] | 1 to 31.6 µM
CCc1c(C#N)c(SC(C(N)=O)c2ccc(CC(N)=O)cc2)nc(N2CCCN(C)CC2)c1C#N (stereo not shown) [Example 400] | 1 to 31.6 µM
CCc1c(C#N)c(SC(C(N)=O)c2ccccc2)nc(N2CCN(Cc3ccncc3)CC2)c1C#N (stereo not shown) [Example 173] | 0.316 to 1 µM
